System: rat platelet
TEST_PROTOCOL: Inhibitory activity of aggregation in rat platelet
Assay type: cell-based
DETAILS: rat platelet rich plasma, arachidonic acid (final concentration 0.5 mM) as inducer; read-out: C: Inhibitory activity of aggregation in rat platelet (IC50; μM)
Method: (3) Inhibitory Activity of Aggregation in Rat Platelet The abdomen of etherized rat was open, and blood was taken from the abdominal arteries, using a sodium citrate solution (final concentration was 0.38%). The blood was centrifuged at 1100 rpm for 10 minutes, and the supernatent was separated as the platelet rich plasma. The plasma was further centrifuged at 2000 rpm for 15 minutes to obtain the supernatent as a platelet poor plasma. […] The change in light transmission was recorded for 5 minutes.
Counter-ions that a name gives are not always drawn.
Reported IC50 values for a set of compounds

Record excerpt, results attached:
[
  {
    "COMPOUND": "O=C(O)Cc1ccc(NC(=O)[C@H](Cc2c[nH]c3ccccc23)NS(=O)(=O)c2ccc(Cl)cc2)cc1",
    "IC50": "0.53 µM"
  },
  {
    "COMPOUND": "CSCCC(NS(=O)(=O)c1ccc(Cl)cc1)C(=O)Nc1ccc(CC(=O)O)cc1 (racemic)",
    "IC50": "0.17 µM"
  },
  {
    "COMPOUND": "O=C(O)CCc1ccc(NC(=O)C(Cn2ccnc2)NS(=O)(=O)c2ccc(Cl)cc2)cc1 (racemic) [Example 95, hydrochloride]",
    "IC50": "1.79 µM"
  }
]

Continue with the compound presented below.
The compound O=C(O)c1ccc(NC(=O)C(COC2CCCCO2)NS(=O)(=O)c2ccc(Cl)cc2)cc1 (racemic) showed IC50 equal to 0.52 µM

---

System: rat platelet
TEST_PROTOCOL: Inhibitory activity of aggregation in rat platelet
Format: cell-based
DETAILS: rat platelet rich plasma, arachidonic acid (final concentration 0.5 mM) as inducer; read-out: C: Inhibitory activity of aggregation in rat platelet (IC50; μM)
ASSAY_READOUT: IC50 (µM)
# output: bare number, implied unit µM

Record excerpt, results attached:
[
  {
    "COMPOUND": "O=C(O)CCCCNC(=O)C(COC1CCCCO1)NS(=O)(=O)c1ccc(Cl)cc1 (racemic) [Example 48]",
    "IC50 / µM": 1.7
  },
  {
    "COMPOUND": "O=C(O)Cc1ccc(NC(=O)C(COc2ccccc2)NS(=O)(=O)c2ccc(Cl)cc2)cc1 (racemic) [Example 129]",
    "IC50 / µM": 0.54
  },
  {
    "COMPOUND": "O=C(O)CCc1ccc(NC(=O)[C@H](Cc2ccccc2)NS(=O)(=O)c2ccc(Cl)cc2)cc1 [Example 250]",
    "IC50 / µM": 0.17
  },
  {
    "COMPOUND": "O=C(O)Cc1ccc(NC(=O)C(COc2ccccc2Cl)NS(=O)(=O)c2ccc(Cl)cc2)cc1 (racemic) [Example 132]",
    "IC50 / µM": 1.7
  },
  {
    "COMPOUND": "O=C(O)CCc1ccc(NC(=O)C(COC2CCCCO2)NS(=O)(=O)c2ccc(Cl)cc2)cc1 (racemic) [Example 42]",
    "IC50 / µM": 0.54
  }
]

The compound O=C(O)Cc1ccc(NC(=O)C(COc2cccnc2)NS(=O)(=O)c2ccc(Br)cc2)cc1 (racemic) [Example 124] showed IC50 equal to 0.31

The compound CC(C)CC(NS(=O)(=O)c1ccc(Cl)cc1)C(=O)Nc1ccc(CC(=O)O)cc1 (racemic) [Example 232] showed IC50 equal to 1.7

---

Test system: rat platelet
TEST_PROTOCOL: Inhibitory activity of aggregation in rat platelet
Format: cell-based
DETAILS: rat platelet rich plasma, arachidonic acid (final concentration 0.5 mM) as inducer; read-out: C: Inhibitory activity of aggregation in rat platelet (IC50; μM)
Each record is given 1 if its reported IC50 is strictly below 0.2 µM. Records at or above 0.2 µM are given 0.

Example cases with answers are listed next.
[
  {
    "COMPOUND": "O=C(O)Cc1ccc(NC(=O)C(CCc2ccccc2)NS(=O)(=O)c2ccc(Cl)cc2)cc1 (racemic)",
    "LABEL": 0
  },
  {
    "COMPOUND": "O=C(O)Cc1ccc(NC(=O)C(COC2CCCCO2)NS(=O)(=O)c2ccc(Cl)c([N+](=O)[O-])c2)cc1 (racemic)",
    "LABEL": 0
  },
  {
    "COMPOUND": "CSCC[C@H](NS(=O)(=O)c1ccc(Br)cc1)C(=O)Nc1cccc(C(=O)O)c1",
    "LABEL": 1
  }
]

Query string: Dear reviewer, please state whether CCCC[C@H](NS(=O)(=O)c1ccc(Cl)cc1)C(=O)Nc1ccc(CC(=O)O)cc1 has IC50 strictly beneath 0.2 µM.
Result string: 1

Query string: Dear reviewer, please state whether O=C(O)Cc1ccc(NC(=O)C(COc2cccc(Cl)c2)NS(=O)(=O)c2ccc(Cl)cc2)cc1 (racemic) has IC50 strictly beneath 0.2 µM.
Result string: 0

Query string: Dear reviewer, please state whether O=C(O)Cc1ccc(NC(=O)C(Cc2ccccc2)NS(=O)(=O)c2ccc(Cl)cc2)cc1 (racemic) has IC50 strictly beneath 0.2 µM.
Result string: 0

Query string: Dear reviewer, please state whether Cc1ccc(S(=O)(=O)NC(COC2CCCCO2)C(=O)Nc2ccc(CC(=O)O)cc2)cc1 (racemic) has IC50 strictly beneath 0.2 µM.
Result string: 0

Query string: Dear reviewer, please state whether CCCCCCC(NS(=O)(=O)c1ccc(Cl)cc1)C(=O)Nc1ccc(CC(=O)O)cc1 (racemic) has IC50 strictly beneath 0.2 µM.
Result string: 0

Query string: Dear reviewer, please state whether CSCC[C@H](NS(=O)(=O)c1ccc(Cl)cc1)C(=O)Nc1ccc(CC(=O)O)cc1 has IC50 strictly beneath 0.2 µM.
Result string: 1

Query string: Dear reviewer, please state whether O=C(O)Cc1ccc(NC(=O)[C@H](Cc2ccccc2)NS(=O)(=O)c2ccc(Br)cc2)cc1 has IC50 strictly beneath 0.2 µM.
Result string: 1

Query string: Dear reviewer, please state whether O=C(O)Cc1ccc(NC(=O)C(Cn2ccnc2)NS(=O)(=O)c2ccc(F)cc2)cc1 (racemic) has IC50 strictly beneath 0.2 µM.
Result string: 0

Query string: Dear reviewer, please state whether O=C(O)Cc1ccc(NC(=O)C(COc2ccc(Cl)cc2)NS(=O)(=O)c2ccc(Br)cc2)cc1 (racemic) has IC50 strictly beneath 0.2 µM.
Result string: 0

---

SYSTEM_UNDER_TEST: thromboxane A2 (TxA2) receptor (Cavia porcellus, UniProt A0A286Y4I8)
Construct: to obtain washed platelets; from tissue; host or cells: washed platelets of male Hartley guinea pigs
Sequence (A0A286Y4I8 1-347): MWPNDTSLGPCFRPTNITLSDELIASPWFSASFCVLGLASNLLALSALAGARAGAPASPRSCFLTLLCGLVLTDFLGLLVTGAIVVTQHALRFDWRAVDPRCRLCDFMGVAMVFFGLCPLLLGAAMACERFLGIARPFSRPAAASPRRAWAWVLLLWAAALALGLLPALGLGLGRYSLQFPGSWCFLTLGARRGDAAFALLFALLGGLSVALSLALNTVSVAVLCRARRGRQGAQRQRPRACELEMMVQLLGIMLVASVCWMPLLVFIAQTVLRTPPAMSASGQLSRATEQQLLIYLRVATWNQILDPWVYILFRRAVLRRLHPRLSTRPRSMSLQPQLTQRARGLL
TEST_PROTOCOL: TxA2 antagonist action by binding assay
DETAILS: washed guinea pig platelets, 1 nM [3H]-SQ29,548, 45 minutes at 25° C.
ASSAY_READOUT: log10(IC50) (log10 of the value in µM)
Hello, just confirming the data are log10 of IC50 with units of µM.

[
  {
    "COMPOUND": "O=C(O)Cc1ccc(NC(=O)C(Cn2ccnc2)NS(=O)(=O)c2ccc(Br)cc2)cc1 (racemic) [Example 104]",
    "SYSTEM_UNDER_TEST": "thromboxane A2 (TxA2) receptor (Cavia porcellus, UniProt A0A286Y4I8)",
    "log10(IC50)": -0.74
  }
]

Summary line: O=C(O)Cc1ccc(NC(=O)C(COc2cccc(Cl)c2)NS(=O)(=O)c2ccc(Cl)cc2)cc1 (racemic) [Example 131] , thromboxane A2 (TxA2) receptor (Cavia porcellus, UniProt A0A286Y4I8), reported log10(IC50) = -1.33

Summary line: O=C(O)c1ccc(NC(=O)C(COC2CCCCO2)NS(=O)(=O)c2ccc(Cl)cc2)cc1 (racemic) [Example 40] , thromboxane A2 (TxA2) receptor (Cavia porcellus, UniProt A0A286Y4I8), reported log10(IC50) = -0.30

Summary line: CSCC[C@H](NS(=O)(=O)c1ccc(Br)cc1)C(=O)Nc1cccc(C(=O)O)c1 [Example 241] , thromboxane A2 (TxA2) receptor (Cavia porcellus, UniProt A0A286Y4I8), reported log10(IC50) = -1.85

Summary line: CSCCC(NS(=O)(=O)c1ccc(Cl)cc1)C(=O)Nc1ccc(CC(=O)O)cc1 (racemic) [Example 233] , thromboxane A2 (TxA2) receptor (Cavia porcellus, UniProt A0A286Y4I8), reported log10(IC50) = -0.77

Summary line: O=C(O)Cc1ccc(NC(=O)C(COc2ccccc2)NS(=O)(=O)c2ccc(I)cc2)cc1 (racemic) [Example 149] , thromboxane A2 (TxA2) receptor (Cavia porcellus, UniProt A0A286Y4I8), reported log10(IC50) = -1.77

Summary line: O=C(O)Cc1ccc(NC(=O)C(COC2CCCCO2)NS(=O)(=O)c2ccc(Br)cc2)cc1 (racemic) [Example 54] , thromboxane A2 (TxA2) receptor (Cavia porcellus, UniProt A0A286Y4I8), reported log10(IC50) = -1.48

src = patent US5650428A
